- Species: Homo sapiens
- method.summary: To identify inhibition of the IFN signalling (Jak-Stat) pathway via expression of an eGFP reporter gene under the control of an IFN-stimulated response element (ISRE) containing MxA promoter.
- Format: functional
- Design: scale not given: direction of the effect not stated beside the values
- condition.details: 30 µM
This section presents compounds with their documented Percent Effect values.
Give a bare numeral; the unit % is implied.

// known answers, use as guide
compound	Percent Effect [%]
Cc1nc(N2CCN(C(=O)C(C)(C)C)CC2)cc(-n2cnc(C)c2C)n1	4.66
COc1ccc(C(C(=O)O)N2CCCN(C3CCCC3)CC2)cc1OC (stereo unspecified)	16
Cc1cnn(CC2CCCCN2Cc2nnc(C3CC3)n2C)c1 (stereo unspecified)	-10.1
Cc1ccc(-c2nc(CN3CCn4c(nnc4C4CC4)C3)cs2)o1	35.1
CN(C)C(=O)COC[C@]12COC[C@H]1CN(Cc1ccoc1)C2	5.51

Could you now look at the following compound, please?
Which Percent Effect is listed for CC(=O)N1CC[C@@H]2CN(C(=O)c3ccco3)CCO[C@@H]2C1 ?
-9.46

###

This section presents compounds with their documented Percent Effect values.
- experimental.system: Chromo domain-containing protein 1 (Saccharomyces cerevisiae (strain ATCC 204508 / S288c) (Baker's yeast))
- method.summary: ScCHD-1 Enzyme Inhibition Assay; further: in the data most compounds retested in dose-response had high values
- Format: functional
- Design: scale not given: direction of the effect not stated beside the values
- condition.details: 30 µM
Give a bare numeral; the unit % is implied.

// known answers, use as guide
compound	u	Percent Effect
COCCCN(C)C1CCCN(Cc2noc(C)n2)C1 (configuration not stated)	%	-1.13
O=C(c1ccccn1)N1CCN(c2ccc(-c3cccnc3)nn2)CC1	%	-7.95
CCN1CCN(Cc2ccnc(-c3cccnc3)n2)CC1	%	-29.4
O=C(NCC(O)c1cccs1)c1cccc(Cl)c1 (configuration not stated)	%	-6.71
COCC(c1cccc(C(F)(F)F)c1)N(C)C(=O)c1cc(C)no1 (configuration not stated)	%	-12.2
N#Cc1ccc(C(=O)N2CC[C@H]3[C@@H]2CCC(=O)N3c2cccnc2)cc1	%	-4.36

Which Percent Effect is listed for CC(C)Cc1nc(OCC(=O)O)c(C#N)c2c1CCC2 ?
-8.05

Which Percent Effect is listed for Cn1c(C(F)(F)F)nn(CCNC(=O)CSCc2ccccc2)c1=O ?
-4.6

Which Percent Effect is listed for Cn1nc2c(cc1=O)CN(Cc1nnc(-c3ccc(F)cc3)o1)CC2 ?
-4.76

Which Percent Effect is listed for CN(C)CCN1CCCC12CCN(C(=O)c1cnccn1)CC2 ?
-6.82

Which Percent Effect is listed for O=C(NCC(=O)N1CCc2ccccc2C1)c1ccoc1 ?
-10.6

Which Percent Effect is listed for COCC1CN(C(=O)c2ccoc2C)Cc2nccn2C1 (configuration not stated) ?
-4.85

###

- experimental.system: Proteasome subunit beta (Trypanosoma cruzi) (UniProt O96673)
- Sequence (whole entry): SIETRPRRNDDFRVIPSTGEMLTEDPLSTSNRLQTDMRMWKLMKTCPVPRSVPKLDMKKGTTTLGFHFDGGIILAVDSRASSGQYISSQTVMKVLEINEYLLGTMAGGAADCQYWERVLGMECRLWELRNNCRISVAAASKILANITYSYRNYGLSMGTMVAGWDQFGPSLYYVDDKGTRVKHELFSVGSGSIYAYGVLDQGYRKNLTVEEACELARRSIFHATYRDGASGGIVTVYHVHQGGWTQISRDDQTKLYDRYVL
- method.summary: Trypanosoma cruzi proteasome chymotrypsin-like activity (TcProtChymo) assay. Further: in the data most compounds retested in dose-response had high values.
- Format: functional
- Parameters: scale not given: direction of the effect not stated beside the values
- condition.details: 9.37 µM
reported.metric: Percent Effect (%)
Give a bare numeral; the unit % is implied.

// known answers, use as guide
compound	experimental.system	measured.number
CC(=O)N1CCCC1c1cccc(Cc2ccc(F)cc2)n1 (configuration not stated)	Proteasome subunit beta (Trypanosoma cruzi) (UniProt O96673)	5.37
Cc1cc(CN(C)C(=O)C2CCCN(C(=O)c3cccs3)C2)no1 (configuration not stated)	Proteasome subunit beta (Trypanosoma cruzi) (UniProt O96673)	15.5
CC1CN(C)c2ccccc2CN1C(=O)CSc1ccncc1 (configuration not stated)	Proteasome subunit beta (Trypanosoma cruzi) (UniProt O96673)	2.48
Cc1cc(C(=O)NCc2ccc(N3CCCC(C(N)=O)C3)cc2)no1 (configuration not stated)	Proteasome subunit beta (Trypanosoma cruzi) (UniProt O96673)	11.1
COc1cccc2c1OCC(NC(=O)NC1CCN(C3CC3)CC1)C2 (configuration not stated)	Proteasome subunit beta (Trypanosoma cruzi) (UniProt O96673)	10.6
COc1ccccc1C(=O)N1CC(Cc2nccc3ccn(C)c23)C1	Proteasome subunit beta (Trypanosoma cruzi) (UniProt O96673)	6.4

# get_value(readout= Percent Effect, system= Proteasome subunit beta (Trypanosoma cruzi) (UniProt O96673)) for Cn1nc2c(cc1=O)CN(Cc1nnc(-c3ccc(F)cc3)o1)CC2
6.23

# get_value(readout= Percent Effect, system= Proteasome subunit beta (Trypanosoma cruzi) (UniProt O96673)) for c1ccc(C(OCCNC2CCc3ncnn3C2)c2ccccc2)cc1 (configuration not stated)
0.526

# get_value(readout= Percent Effect, system= Proteasome subunit beta (Trypanosoma cruzi) (UniProt O96673)) for COc1ccc(C)cc1CN1CCCC1c1noc(C2CC2)n1 (configuration not stated)
18.7

Numbers sourced from ChEMBL document CHEMBL3988442.
